Kindly state EC50 for each of the entries shown.
# System: differentiated human THP-1 cells
# METHOD DESCRIPTION: stimulated release of TNF-α from differentiated human THP-1 cells (ELISA, dose-response)
# Type: cell-based
# CONDITION: Homo sapiens, THP-1, running text; read-out: EC50, stimulated release of TNF-α from differentiated human THP-1 cells
Lab note: write values as number then unit, every time.

>  <COMPOUND>
O=C(N[C@H]1C[C@@H]1c1ccccc1)[C@@H]1CN(C(=O)c2ccc(C(=O)N3C[C@@H](C(=O)N[C@H]4C[C@@H]4c4ccccc4)[C@H](C(=O)N[C@H]4C[C@@H]4c4ccccc4)C3)cc2)C[C@H]1C(=O)N[C@H]1C[C@@H]1c1ccccc1 (racemic) [Compound 12]

>  <EC50>
10 nM

$$$$

Could you now look at the following compound, please?
INPUT: Query the reported EC50 for differentiated human THP-1 cells; item: O=C(NCCc1ccc(F)cc1)[C@H]1CN(C(=O)c2ccc(C(=O)N3C[C@@H](C(=O)NCCc4ccc(F)cc4)[C@H](C(=O)NCCc4ccc(F)cc4)C3)cc2)C[C@@H]1C(=O)NCCc1ccc(F)cc1 [Compound 99]
OUTPUT: 70 nM
